targetOrSystem: Scavenger receptor class B member 1 (Mus musculus) (UniProt Q61009)
Sequence (Q61009 whole entry, looked up): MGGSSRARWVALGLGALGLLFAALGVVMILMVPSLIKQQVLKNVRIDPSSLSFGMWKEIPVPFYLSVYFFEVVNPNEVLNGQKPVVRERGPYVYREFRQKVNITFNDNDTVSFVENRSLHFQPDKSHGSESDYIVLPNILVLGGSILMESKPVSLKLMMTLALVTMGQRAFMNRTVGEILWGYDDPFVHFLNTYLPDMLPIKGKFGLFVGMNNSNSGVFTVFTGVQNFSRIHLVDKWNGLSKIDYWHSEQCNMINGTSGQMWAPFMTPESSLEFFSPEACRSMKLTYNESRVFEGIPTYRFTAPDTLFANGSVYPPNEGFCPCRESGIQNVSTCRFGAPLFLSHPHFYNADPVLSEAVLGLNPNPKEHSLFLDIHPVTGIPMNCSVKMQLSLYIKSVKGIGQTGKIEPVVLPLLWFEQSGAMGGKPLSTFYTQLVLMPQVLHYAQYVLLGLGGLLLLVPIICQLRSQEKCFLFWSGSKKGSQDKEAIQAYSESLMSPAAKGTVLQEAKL
protocolDetails: mouse SR-BI DiI-HDL uptake blockers – ldlA[mSR-BI] cells, fluorescence, single point, primary screen (AID 488896);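 also: 0% = median of neutral control wells and 100% = median of positive control wells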
measurementSetup: ldlA[mSR-BI] CHO cells, 3 h, at 12.5 µM, active compounds read high
Hit rate of the full screen: of about 320,000 compounds, about 3,100 (0.97%) were called active. The sample as a whole holds a higher share of actives than the screen did.
For each record, write down the corresponding inhibition.
Give bare numbers, in %.

[[record]]
compound = "CSc1ncnc2c1ncn2CC(=O)C1CCC2C3CCC4=CC(=O)CCC4(C)C3CCC12C (stereo unspecified)"
targetorsystem = "Scavenger receptor class B member 1 (Mus musculus) (UniProt Q61009)"
readout = "inhibition"
unitinfo = "%"
experimentalresult = -12.4


Provide the reported inhibition of each entry below, same order.
1. CC(=O)Nc1ccc(C(=O)Nc2cc(S(=O)(=O)N3CCOCC3)ccc2N2CCOCC2)cc1
2. O=C(O)C1C2C=CC(O2)C1C(=O)Nc1ccccn1 (stereo unspecified)

Out:
[-8.12, -12.6]

Provide the reported inhibition of each entry below, same order.
1. CCOc1ccc(N/C=C/C(=O)c2cc(OC)c(OC)c(OC)c2)cc1
2. Cc1nc(-c2ccc(F)cc2)c(CC(=O)N(C)CC(=O)Nc2c(C)cccc2C)s1
3. Cc1c(NS(=O)(=O)c2cccc(C(=O)Nc3ccc(SC(F)F)cc3)c2)c(=O)n(-c2ccccc2)n1C
4. N#CCc1c[nH]c2ccc([N+](=O)[O-])cc12
5. O=C1c2ccccc2C(=O)C1C(=O)C1CC1
6. CCOc1ccc(N/C=C/C(=O)c2ccccc2)cc1
7. NC(=O)c1ccc(N2CCCC2)nc1

Out:
1. 78.7
2. -10.6
3. 10.9
4. -13.4
5. -19.4
6. -1.21
7. -0.443

Provide the reported inhibition of each entry below, same order.
1. CC(=O)N1CCN(C(=O)c2cc(-c3ccc(Cl)s3)nc3ccccc23)CC1
2. O=C1NCC(c2ccccc2)(c2ccccc2)C(=O)N1
3. N#Cc1c(NC(=O)c2ccc(N3CCOCC3)c([N+](=O)[O-])c2)sc2c1CCCC2
4. Cc1c(NC(=O)c2cc(-c3ccc(Cl)s3)nc3ccccc23)c(=O)n(-c2ccccc2)n1C
5. CCOc1ccc(NC(=O)CN(C)C(=O)Cc2sc(C)nc2-c2ccc(F)cc2)cc1OCC
6. Cc1ccc(C)c(N2CCN(C(=O)CCCn3c(=O)c4cccn4c4cccnc43)CC2)c1

Out:
33.7
-22.9
83.7
95.8
73.5
84.4

Provide the reported inhibition of each entry below, same order.
1. Cc1ccc(C)c(N2CCN(C(=O)Cn3ncn4cccc4c3=O)CC2)c1
2. CCOc1ccc(NC(=O)CN(C)C(=O)CCSc2ccc(F)cc2)cc1OCC
3. CC(=O)c1ccc(NC(=O)C(C)OC(=O)c2ccc(NS(=O)(=O)c3ccc4[nH]c(=O)[nH]c4c3)cc2)cc1 (stereo unspecified)
4. CC(C)Cn1cnc2c(SCc3ccc(Cl)cc3)nc(N)nc21
5. O=C(c1cc(-c2ccc(Cl)s2)nc2ccccc12)N1CCOCC1

Out:
1. 10.1
2. 39.6
3. 18.7
4. 7.71
5. 19.5

---

targetOrSystem: Scavenger receptor class B member 1 (Mus musculus) (UniProt Q61009)
protocolDetails: mouse SR-BI DiI-HDL uptake blockers – ldlA[mSR-BI] cells, fluorescence, single point, primary screen (AID 488896);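 also: 0% = median of neutral control wells and 100% = median of positive control wells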
measurementSetup: ldlA[mSR-BI] CHO cells, 3 h, at 12.5 µM
The campaign covered roughly 320,000 compounds. About 3,100 (0.97%) were called active.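 The calls were made as follows: active = mean replicate inhibition of at least 70% and a set share of replicates each scoring 70 or more; inconclusive = meets just one of the two criteria; inactive = fails both criteria.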 Only a selection was taken, and actives are over-represented in it overall.
Pick one: active, inactive

[[record]]
moleculesmiles = "Cc1ncc(CO)c(/C=N/NC(=O)c2cccc(S(=O)(=O)N3CCCC3)c2)c1O"
classlabel = "active"

[[record]]
moleculesmiles = "O=C(Nc1ccc(N2CCOCC2)cc1)c1cccc(S(=O)(=O)N2CCOCC2)c1"
classlabel = "inactive"

[[record]]
moleculesmiles = "COc1ccc(Br)cc1/C=N/NC(=O)c1cccc(S(=O)(=O)N2CCOCC2)c1"
classlabel = "active"

[[record]]
moleculesmiles = "Cc1ccc(NC(=O)c2ccccn2)cc1S(=O)(=O)N1CCOCC1"
classlabel = "inactive"


In: Write down the call the test reported for this compound. Item: Cc1ccc(C(=O)Nc2ccc3c(c2)OCCO3)cc1S(=O)(=O)N1CCOCC1
Out: inactive
